For each of the molecules below, state its inhibition at 1 µM.
System Tested: GSPT1 protein (Homo sapiens, UniProt P15170)
Construct: The whole cell lysate was prepared using a RIPA lysis buffer; endogenous in cells; host or cells: NB-4 cells
Sequence (P15170 whole entry): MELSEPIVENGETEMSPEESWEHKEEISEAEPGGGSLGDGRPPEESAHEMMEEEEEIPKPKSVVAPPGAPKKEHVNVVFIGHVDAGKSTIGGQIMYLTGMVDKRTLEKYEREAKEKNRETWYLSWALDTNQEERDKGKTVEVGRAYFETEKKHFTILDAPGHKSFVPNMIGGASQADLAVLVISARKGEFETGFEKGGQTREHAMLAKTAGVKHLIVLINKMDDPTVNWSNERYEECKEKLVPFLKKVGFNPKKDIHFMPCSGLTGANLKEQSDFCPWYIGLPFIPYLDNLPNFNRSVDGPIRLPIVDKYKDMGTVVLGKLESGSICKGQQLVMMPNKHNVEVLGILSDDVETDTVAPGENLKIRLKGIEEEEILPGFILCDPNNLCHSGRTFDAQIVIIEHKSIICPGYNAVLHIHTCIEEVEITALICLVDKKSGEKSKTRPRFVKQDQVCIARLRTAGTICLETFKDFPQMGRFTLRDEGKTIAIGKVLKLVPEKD
Method Summary: Degradation of GSPT1 protein in NB-4 cells (Western blot)
Format: cell-based
Settings: NB-4 cells, compound 1 μM, 6 h; read-out: GSPT1 degradation

Reference set, count: 8
{"Molecule": "COc1ccc(C(=O)NCc2ccc3c(c2F)CN(C2CCC(=O)NC2=O)C3=O)cc1 (centres unmarked) [FDAB-85]", "inhibition at 1 µM": "> 80%"}
{"Molecule": "CS(=O)(=O)c1ccc(C(=O)NCc2ccc3c(c2F)CN(C2CCC(=O)NC2=O)C3=O)c(N)c1 (centres unmarked) [FDAB-114]", "inhibition at 1 µM": "< 25%"}
{"Molecule": "NCc1cc(F)cc2c1CN(C1CCC(=O)NC1=O)C2=O (centres unmarked) [FDAB-17]", "inhibition at 1 µM": "< 25%"}
{"Molecule": "O=C1CCC(N2Cc3c(ccc(CNC(=O)c4ccc(Cl)c(O)c4)c3Cl)C2=O)C(=O)N1 (centres unmarked) [FDAB-79]", "inhibition at 1 µM": "> 80%"}
{"Molecule": "O=C1CCC(N2Cc3c(ccc(CNC(=O)c4ccc(Oc5ccccc5)cc4)c3F)C2=O)C(=O)N1 (centres unmarked) [FDAB-101]", "inhibition at 1 µM": "> 80%"}
{"Molecule": "CCc1ccc(C(=O)NCc2ccc3c(c2F)CN(C2CCC(=O)NC2=O)C3=O)cc1 (centres unmarked) [FDAB-90]", "inhibition at 1 µM": "> 80%"}
{"Molecule": "O=C1CCC(N2Cc3cc(CNC(=O)c4nc5ccccc5[nH]4)c(F)cc3C2=O)C(=O)N1 (centres unmarked) [FDAB-33]", "inhibition at 1 µM": "< 25%"}
{"Molecule": "O=C1CCC(N2Cc3cc(CNC(=O)c4cc5cc(Cl)ccc5o4)c(F)cc3C2=O)C(=O)N1 (centres unmarked) [FDAB-20]", "inhibition at 1 µM": "> 80%"}

I would be grateful if you could provide inhibition at 1 µM for each of the following entries.
1. Cc1cccc(C(=O)NCc2ccc3c(c2F)CN(C2CCC(=O)NC2=O)C3=O)c1 (centres unmarked) [FDAB-89]
2. O=C1CCC(N2Cc3c(ccc(CNC(=O)c4ccc(Cl)cn4)c3F)C2=O)C(=O)N1 (centres unmarked) [FDAB-62]
3. N#Cc1ccc2c(c1F)CN(C1CCC(=O)NC1=O)C2=O (centres unmarked) [FDAB-1]
4. N#Cc1ccc(NCC(=O)NCc2ccc3c(c2F)CN(C2CCC(=O)NC2=O)C3=O)cc1 (centres unmarked) [FDAB-149]
5. O=C(CCP(c1ccccc1)c1ccccc1)NCc1ccc2c(c1F)CN(C1CCC(=O)NC1=O)C2=O (centres unmarked) [FDAB-160]
6. CC(C)(C)Oc1ccc(C(=O)NCc2ccc3c(c2F)CN(C2CCC(=O)NC2=O)C3=O)cc1 (centres unmarked) [FDAB-103]
7. N#Cc1cc(C(=O)NCc2cc3c(cc2F)C(=O)N(C2CCC(=O)NC2=O)C3)ccc1Cl (centres unmarked) [FDAB-54]

Reply:
1: < 25%; 2: < 25%; 3: < 25%; 4: < 25%; 5: > 80%; 6: > 80%; 7: 50 to 80%

* * *

For each of the molecules below, state its inhibition at 1 µM.
System Tested: GSPT1 protein (Homo sapiens)
Construct: The whole cell lysate was prepared using a RIPA lysis buffer; endogenous in cells; host or cells: NB-4 cells
Method Summary: Degradation of GSPT1 protein in NB-4 cells (Western blot)
Assay type: cell-based
Settings: NB-4 cells, compound 1 μM, 6 h; read-out: GSPT1 degradation

I would be grateful if you could provide inhibition at 1 µM for each of the following entries.
1. O=C1CCC(N2Cc3cc(CNC(=O)C4CCCCC4)c(F)cc3C2=O)C(=O)N1 (centres unmarked) [FDAB-42]
2. O=C1CCC(N2Cc3cc(CNC(=O)c4ccncc4)c(F)cc3C2=O)C(=O)N1 (centres unmarked) [FDAB-31]
3. Cc1ccc(C(=O)NCc2ccc3c(c2F)CN(C2CCC(=O)NC2=O)C3=O)c(O)c1 (centres unmarked) [FDAB-109]
4. O=C(COc1c(Cl)cc(Cl)cc1Cl)NCc1ccc2c(c1F)CN(C1CCC(=O)NC1=O)C2=O (centres unmarked) [FDAB-152]
5. CC(C)(C)OC(=O)NCc1ccc2c(c1Cl)CN(C1CCC(=O)NC1=O)C2=O (centres unmarked) [FDAB-11]
6. CC(C)(C)OC(=O)NCc1cc(F)c2c(c1)CN(C1CCC(=O)NC1=O)C2=O (centres unmarked) [FDAB-8]
7. CCCOc1ccc(/C=C/C(=O)NCc2ccc3c(c2F)CN(C2CCC(=O)NC2=O)C3=O)cc1 (centres unmarked) [FDAB-143]

Reply:
< 25%
< 25%
> 80%
> 80%
< 25%
< 25%
> 80%

I would be grateful if you could provide inhibition at 1 µM for each of the following entries.
1. O=C1CCC(N2Cc3cc(CNC(=O)c4cc5ccccc5[nH]4)c(F)cc3C2=O)C(=O)N1 (centres unmarked) [FDAB-24]
2. O=C1CCC(N2Cc3cc(CNC(=O)c4ccc(Cl)cc4)c(F)cc3C2=O)C(=O)N1 (centres unmarked) [FDAB-23]
3. O=C(C#Cc1ccccn1)NCc1ccc2c(c1F)CN(C1CCC(=O)NC1=O)C2=O (centres unmarked) [FDAB-148]
4. O=C(CSc1ccncc1)NCc1ccc2c(c1F)CN(C1CCC(=O)NC1=O)C2=O (centres unmarked) [FDAB-155]
5. O=C1CCC(N2Cc3cc(CNC(=O)c4ccncn4)c(F)cc3C2=O)C(=O)N1 (centres unmarked) [FDAB-38]

Reply:
> 80%
> 80%
> 80%
< 25%
< 25%

* * *

System Tested: GSPT1 protein (Homo sapiens, UniProt P15170)
Construct: The whole cell lysate was prepared using a RIPA lysis buffer; endogenous in cells; host or cells: NB-4 cells
Method Summary: Degradation of GSPT1 protein in NB-4 cells (Western blot)
Assay type: cell-based
Settings: NB-4 cells, compound 1 μM, 6 h; read-out: GSPT1 degradation
Recorded Metric: inhibition at 1 µM

{"Compound": "O=C1CCC(N2Cc3cc(CNC(=O)c4cccnc4)c(F)cc3C2=O)C(=O)N1 (stereo not drawn)", "Recorded Metric": "inhibition at 1 µM", "Experimental Result": "< 25%"}
{"Compound": "O=C(CCc1cccc2ccccc12)NCc1cc(F)cc2c1CN(C1CCC(=O)NC1=O)C2=O (stereo not drawn)", "Recorded Metric": "inhibition at 1 µM", "Experimental Result": "> 80%"}
{"Compound": "O=C1CCC(N2Cc3c(ccc(CNC(=O)c4cc5cc(F)ccc5o4)c3Cl)C2=O)C(=O)N1 (stereo not drawn)", "Recorded Metric": "inhibition at 1 µM", "Experimental Result": "50 to 80%"}
{"Compound": "O=C1CCC(N2Cc3cc(CNC(=O)c4cc5cc(Cl)ccc5o4)c(Cl)cc3C2=O)C(=O)N1 (stereo not drawn)", "Recorded Metric": "inhibition at 1 µM", "Experimental Result": "< 25%"}
{"Compound": "O=C1CCC(N2Cc3c(ccc(CNC(=O)c4ccc(C5CC5)cc4)c3F)C2=O)C(=O)N1 (stereo not drawn)", "Recorded Metric": "inhibition at 1 µM", "Experimental Result": "> 80%"}
{"Compound": "O=C1CCC(N2Cc3c(ccc(CNC(=O)c4cc5cc(Cl)ccc5o4)c3F)C2=O)C(=O)N1 (stereo not drawn)", "Recorded Metric": "inhibition at 1 µM", "Experimental Result": "> 80%"}
{"Compound": "CS(=O)(=O)c1ccc(C(=O)NCc2ccc3c(c2F)CN(C2CCC(=O)NC2=O)C3=O)cc1 (stereo not drawn)", "Recorded Metric": "inhibition at 1 µM", "Experimental Result": "< 25%"}
{"Compound": "O=C1CCC(N2Cc3c(ccc(CNC(=O)C(F)(F)c4ccc(Cl)cc4)c3F)C2=O)C(=O)N1 (stereo not drawn)", "Recorded Metric": "inhibition at 1 µM", "Experimental Result": "> 80%"}

I would be grateful if you could provide inhibition at 1 µM for each of the following entries.
1. CC(C)(C)OC(=O)NCc1cc2c(cc1F)C(=O)N(C1CCC(=O)NC1=O)C2 (stereo not drawn)
2. O=C1CCC(N2Cc3cc(CNC(=O)c4ccc5ccccc5n4)c(F)cc3C2=O)C(=O)N1 (stereo not drawn)
3. N#Cc1cc(F)c2c(c1)CN(C1CCC(=O)NC1=O)C2=O (stereo not drawn)

Reply:
1. < 25%
2. > 80%
3. < 25%

* * *

System Tested: GSPT1 protein (Homo sapiens)
Construct: The whole cell lysate was prepared using a RIPA lysis buffer; endogenous in cells; host or cells: NB-4 cells
Method Summary: Degradation of GSPT1 protein in NB-4 cells (Western blot)
Assay type: cell-based
Settings: NB-4 cells, compound 1 μM, 6 h; read-out: GSPT1 degradation
Recorded Metric: inhibition at 1 µM

{"Compound": "O=C(Cc1cccc(-c2ccccc2)c1)NCc1ccc2c(c1F)CN(C1CCC(=O)NC1=O)C2=O (centres unmarked)", "System Tested": "GSPT1 protein (Homo sapiens)", "Recorded Metric": "inhibition at 1 µM", "Experimental Result": "> 80%"}

I would be grateful if you could provide inhibition at 1 µM for each of the following entries.
1. O=C1CCC(N2Cc3cc(CNC(=O)c4cc5ccccc5o4)cc(F)c3C2=O)C(=O)N1 (centres unmarked)
2. Cc1ccc(C(=O)NCc2ccc3c(c2F)CN(C2CCC(=O)NC2=O)C3=O)cc1F (centres unmarked)
3. CCOC(=O)CN1C(=O)CCC(N2Cc3c(ccc(CNC(=O)c4ccc(Cl)cc4)c3F)C2=O)C1=O (centres unmarked)
4. COc1cccc(C(=O)NCc2cc3c(cc2F)C(=O)N(C2CCC(=O)NC2=O)C3)c1 (centres unmarked)
5. O=C1CCC(N2Cc3c(ccc(CNC(=O)c4ccc(Cl)cn4)c3Cl)C2=O)C(=O)N1 (centres unmarked)
6. O=C1CCC(N2Cc3c(ccc(CNC(=O)c4ccccc4)c3F)C2=O)C(=O)N1 (centres unmarked)
7. O=C(CCOc1ccccc1)NCc1ccc2c(c1F)CN(C1CCC(=O)NC1=O)C2=O (centres unmarked)

Reply:
["< 25%", "> 80%", "< 25%", "50 to 80%", "< 25%", "< 25%", "> 80%"]
